Values were extracted from patent US20240360228A1.

molecular target: T1, human chemokine (C-C motif) receptor 8 (CCR8) (human, UniProt P51685 1-355); experiment: flow cytometry blocking, PBMC CCR8+ CD4+ cells; competitor PE-AB2 (its MFI is read)
T1 construct: On human peripheral blood lymphocytes / PBMC (native) or on human CCR8 GFP-transfected Ba/F3 cells; also called hCCR8; human CCR8
T1 sequence (P51685 whole entry): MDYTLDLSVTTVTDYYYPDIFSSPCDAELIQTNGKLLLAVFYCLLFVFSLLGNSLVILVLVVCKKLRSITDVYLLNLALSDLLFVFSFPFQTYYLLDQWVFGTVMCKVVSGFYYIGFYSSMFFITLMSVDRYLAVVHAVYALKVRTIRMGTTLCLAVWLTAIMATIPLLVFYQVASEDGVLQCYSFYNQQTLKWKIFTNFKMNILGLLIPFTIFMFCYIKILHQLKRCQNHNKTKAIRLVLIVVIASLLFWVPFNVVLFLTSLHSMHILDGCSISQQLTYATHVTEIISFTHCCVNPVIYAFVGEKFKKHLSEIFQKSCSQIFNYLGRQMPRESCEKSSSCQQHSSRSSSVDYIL
Property: % Blocking (%)
Numbers only here, please. The scale is %.

AB5 (antibody, V domains shown, Hybridoma monoclonal; also called antibody 5; clone 5) VH: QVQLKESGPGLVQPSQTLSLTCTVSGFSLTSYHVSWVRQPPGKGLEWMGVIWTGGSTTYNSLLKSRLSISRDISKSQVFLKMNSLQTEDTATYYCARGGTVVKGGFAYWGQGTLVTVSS VL: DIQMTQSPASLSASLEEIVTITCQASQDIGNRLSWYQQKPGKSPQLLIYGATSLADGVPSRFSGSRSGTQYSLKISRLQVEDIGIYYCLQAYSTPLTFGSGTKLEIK: 47.1

// % Blocking lookup, key: AB12 (antibody, V domains shown, Hybridoma monoclonal; also called antibody 12; clone 12) VH: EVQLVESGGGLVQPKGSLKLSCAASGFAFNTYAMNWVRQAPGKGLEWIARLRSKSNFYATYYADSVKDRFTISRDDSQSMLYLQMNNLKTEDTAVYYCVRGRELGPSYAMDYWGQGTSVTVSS VL: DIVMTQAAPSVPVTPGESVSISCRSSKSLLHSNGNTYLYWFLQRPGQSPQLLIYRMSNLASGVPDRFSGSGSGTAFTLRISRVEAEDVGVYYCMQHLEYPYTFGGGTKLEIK
-46.8

Thanks! And AB14 (antibody, V domains shown, Hybridoma monoclonal; also called antibody 14; clone 14) VH: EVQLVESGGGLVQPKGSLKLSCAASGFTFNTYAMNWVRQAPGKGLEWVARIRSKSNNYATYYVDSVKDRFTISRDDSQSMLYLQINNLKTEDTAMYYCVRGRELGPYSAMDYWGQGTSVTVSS VL: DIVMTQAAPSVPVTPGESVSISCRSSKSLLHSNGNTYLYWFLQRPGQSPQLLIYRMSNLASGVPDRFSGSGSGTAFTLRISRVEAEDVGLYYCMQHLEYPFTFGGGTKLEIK ?
-32.6

Then what about the binder AB4 (antibody, V domains shown, Hybridoma monoclonal; also called antibody 4; clone 4) VH: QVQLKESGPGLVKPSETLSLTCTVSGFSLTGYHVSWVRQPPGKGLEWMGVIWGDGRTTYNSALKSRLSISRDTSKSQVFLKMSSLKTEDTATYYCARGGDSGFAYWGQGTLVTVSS VL: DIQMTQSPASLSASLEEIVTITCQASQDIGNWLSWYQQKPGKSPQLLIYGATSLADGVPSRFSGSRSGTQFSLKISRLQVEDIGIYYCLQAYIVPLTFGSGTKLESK ?
45.8
